# System: GABA receptor complex (GRC)
# ASSAY TEXT: [35S]TBPS binding in rat cerebral cortex P2 homogenate
# ASSAY CONTEXT: maximum inhibition of [35S]TBPS binding
// reported IMAX (maximum inhibition) for each item listed
REPORTED ENDPOINT: IMAX (maximum inhibition) (%)

[[record]]
compound = "CC(=O)[C@H]1CC[C@H]2[C@@H]3CC[C@H]4C[C@@H](O)CC[C@]4(C)[C@H]3CC[C@]12C [3β-Hydroxy-5α-pregnan-20-one, reference compound]"
readout_number = 33

[[record]]
compound = "CC12CCC(O)CC1CCC1C2CCC2(C)C(C(=O)CSc3ncc[nH]3)CCC12 (stereo not drawn)"
readout_number = 80

[[record]]
compound = "C[C@]12CC[C@@H](O)C[C@H]1CC[C@@H]1[C@@H]2CC[C@]2(C)[C@@H](C(=O)CSc3ccncc3)CC[C@@H]12"
readout_number = 74

[[record]]
compound = "C[n+]1ccc(SCC(=O)C2CCC3C4CCC5CC(O)CCC5(C)C4CCC23C)cc1 (stereo not drawn) [3α-Hydroxy-21-(4′-pyridyl)thio-5β-pregnan-20-one N-methyl io]"
readout_number = 53

[[record]]
compound = "CO[C@H]1CC[C@H]2[C@@H]3CC[C@H]4C[C@H](O)[C@@H](OC(C)C)C[C@]4(C)[C@H]3CC[C@]12C"
readout_number = 100

[[record]]
compound = "C#C[C@@]1(O)CC[C@@]2(C)[C@@H](CC[C@@H]3[C@@H]2CC[C@]2(C)[C@@H](C(=O)CSc4ccncc4)CC[C@@H]32)C1"
readout_number = 103

[[record]]
compound = "C[C@]12CC[C@@H](O)C[C@H]1CC[C@@H]1[C@@H]2CC[C@]2(C)[C@@H](C(=O)CCc3ccncc3)CC[C@@H]12"
readout_number = 103

[[record]]
compound = "C[C@@]12CCC[C@H]1[C@@H]1CC[C@H]3C[C@H](O)CC[C@]3(C)[C@H]1CC2 [3α-Hydroxy-5α-androstane, reference compound]"
readout_number = 99

[[record]]
compound = "C[C@]12CC[C@@H]3c4ccc(O)cc4CC[C@H]3[C@@H]1CC[C@@H]2O [17β-Estradiol, reference compound]"
readout_number = 0

[[record]]
compound = "CC(=O)c1ccc(C#CCO[C@H]2CC[C@H]3[C@@H]4CC[C@H]5C[C@](C)(O)CC[C@]5(C)[C@H]4CC[C@]23C)cc1"
readout_number = 95

[[record]]
compound = "COCC1(O)CCC2(C)C(CCC3C2CCC2(C)C(C(=O)CSc4ccc(F)cc4)CCC32)C1 (stereo not drawn)"
readout_number = 97

[[record]]
compound = "COCC1(O)CCC2(C)C(CCC3C2CCC2(C)C(C(=O)CSc4ccncc4)CCC32)C1 (stereo not drawn)"
readout_number = 106


* * *

Recorded measurements of IMAX (maximum inhibition), one per entry
# Test system: GABA receptor complex (GRC)
# ASSAY TEXT: [35S]TBPS binding in rat cerebral cortex P2 homogenate
# ASSAY CONTEXT: maximum inhibition of [35S]TBPS binding
# From the text: To those skilled in the art, it is known that the modulation of [^35S]t-butylbicyclophosphorothionate ([^35S]TBPS) binding is a measure of the potency and efficacy of drugs acting at the GRC, which drugs may be of potential therapeutic value in the treatment of stress, anxiety, and seizure disorders (Squires, R. F., et al., Mol, Pharmacol., 23:326 (1983); Lawrence, L. J., et al., Biochem. Biophys. Res. Comm., 123:1130-1137 (1984); Wood, et al., Pharmacol, Exp. Ther., 231:572-576 (1984)). […]
Structures can show the parent of a compound that is named as a salt.
REPORTED ENDPOINT: IMAX (maximum inhibition) (%)

[[record]]
compound = "CCCO[C@H]1C[C@@]2(C)[C@@H](CC[C@@H]3[C@@H]2CC[C@]2(C)[C@@H](C(=O)CSCCCS(=O)(=O)[O-])CC[C@@H]32)C[C@@H]1O.[Na+]"
target_entity = "GABA receptor complex (GRC)"
readout_number = 101

[[record]]
compound = "COCC1(O)CCC2(C)C(CCC3C2CCC2(C)C(C(=O)CS(=O)(=O)c4ccc(F)cc4)CCC32)C1 (centres unmarked)"
target_entity = "GABA receptor complex (GRC)"
readout_number = 99

[[record]]
compound = "C#CC1(O)CCC2(C)C(CCC3C2CCC2(C)C(C(=O)CSCCOS(=O)(=O)O)CCC32)C1 (centres unmarked) [ammonium salt]"
target_entity = "GABA receptor complex (GRC)"
readout_number = 101

[[record]]
compound = "C#C[C@@]1(O)CC[C@@]2(C)[C@H](CC[C@@H]3[C@@H]2CC[C@]2(C)[C@@H](C(=O)CSCCO)CC[C@@H]32)C1"
target_entity = "GABA receptor complex (GRC)"
readout_number = 103

[[record]]
compound = "CC12CCC(O)(C#CCCO)CC1CCC1C2CCC2(C)C(C(=O)CSc3ccncc3)CCC12 (centres unmarked)"
target_entity = "GABA receptor complex (GRC)"
readout_number = 100

[[record]]
compound = "CCCO[C@H]1C[C@@]2(C)[C@@H](CC[C@@H]3[C@@H]2CC[C@]2(C)[C@@H](C(=O)CS(=O)(=O)CCCS(=O)(=O)[O-])CC[C@@H]32)C[C@@H]1O.[Na+]"
target_entity = "GABA receptor complex (GRC)"
readout_number = 101

[[record]]
compound = "C[C@@]12CCC[C@H]1[C@@H]1CC[C@@H]3C[C@H](O)CC[C@]3(C)[C@H]1CC2 [3α-Hydroxy-5β-androstane, reference compound]"
target_entity = "GABA receptor complex (GRC)"
readout_number = 83

[[record]]
compound = "C#CC1(O)CCC2(C)C(CCC3C2CCC2(C)C(C(=O)CSCCS(=O)(=O)O)CCC32)C1 (centres unmarked) [sodium salt]"
target_entity = "GABA receptor complex (GRC)"
readout_number = 93

[[record]]
compound = "CC12CCC(O)CC1CCC1C2CCC2(C)C(C(=O)CS(=O)(=O)O)CCC12 (centres unmarked)"
target_entity = "GABA receptor complex (GRC)"
readout_number = 62

[[record]]
compound = "C[C@]12CC[C@@H](O)C[C@H]1CC[C@@H]1[C@@H]2CC[C@]2(C)[C@@H](C(=O)COc3ccncc3)CC[C@@H]12"
target_entity = "GABA receptor complex (GRC)"
readout_number = 76

[[record]]
compound = "C[C@]12C[C@H](O)[C@H]3[C@@H](CCC4=CC(=O)CC[C@@]43C)[C@@H]1CC[C@@H]2C(=O)CO [4-Pregnan-11β,21-diol-3,20-dione, reference compound]"
target_entity = "GABA receptor complex (GRC)"
readout_number = 30

[[record]]
compound = "C#C[C@@]1(O)CC[C@@]2(C)[C@@H](CC[C@@H]3[C@@H]2CC[C@]2(C)[C@@H](OC)CC[C@@H]32)C1"
target_entity = "GABA receptor complex (GRC)"
readout_number = 106

[[record]]
compound = "COC1CCC2C3CCC4CC(O)(C(F)(F)F)CCC4(C)C3CCC12C (stereo not drawn) [3α-Hydroxy-17β-methoxy-3β-trifluoromethyl-5β-androstane]"
target_entity = "GABA receptor complex (GRC)"
readout_number = 103

[[record]]
compound = "C#CCO[C@H]1CC[C@H]2[C@@H]3CC[C@H]4C[C@](C)(O)CC[C@]4(C)[C@H]3CC[C@]12C"
target_entity = "GABA receptor complex (GRC)"
readout_number = 94

[[record]]
compound = "COC1CCC2C3CCC4CC(O)(C(F)(F)F)CCC4(C)C3CCC12C (stereo not drawn) [3α-Hydroxy-17β-methoxy-3β-trifluoromethyl-5α-androstane]"
target_entity = "GABA receptor complex (GRC)"
readout_number = 100

[[record]]
compound = "COC1CCC2C3CCC4CC(O)(C#CCCOC(=O)CCC(=O)O)CCC4(C)C3CCC12C (centres unmarked) [sodium salt]"
target_entity = "GABA receptor complex (GRC)"
readout_number = 100

[[record]]
compound = "CO[C@H]1CC[C@H]2[C@@H]3CC[C@H]4C[C@](C)(O)CC[C@]4(C)[C@H]3CC[C@]12C"
target_entity = "GABA receptor complex (GRC)"
readout_number = 97

[[record]]
compound = "COC1CCC2C3CCC4CC(O)(C#Cc5ccc(C(C)=O)cc5)CCC4C3CCC12C (centres unmarked)"
target_entity = "GABA receptor complex (GRC)"
readout_number = 96

[[record]]
compound = "CC(=O)[C@H]1CC[C@H]2[C@@H]3CCC4=CC(=O)CC[C@]4(C)[C@H]3CC[C@]12C [Progesterone, reference compound]"
target_entity = "GABA receptor complex (GRC)"
readout_number = 100

[[record]]
compound = "C[C@]12CC[C@@H](O)C[C@@H]1CC[C@@H]1[C@@H]2CC[C@]2(C)[C@@H](C(=O)CO)CC[C@@H]12 [3α,21-Dihydroxy-5α-pregnan-20-one, reference compound]"
target_entity = "GABA receptor complex (GRC)"
readout_number = 100

[[record]]
compound = "C[C@@]1(O)CC[C@@]2(C)[C@@H](CC[C@@H]3[C@@H]2CC[C@]2(C)[C@@H](C(=O)COc4ccc5ncccc5c4)CC[C@@H]32)C1"
target_entity = "GABA receptor complex (GRC)"
readout_number = 96

[[record]]
compound = "C[C@]12CC[C@@H](O)C[C@H]1CC[C@@H]1[C@@H]2CC[C@]2(C)[C@@H](C(=O)CSCCO)CC[C@@H]12"
target_entity = "GABA receptor complex (GRC)"
readout_number = 71

[[record]]
compound = "COC1CCC2C3CCC4CC(O)(C(F)(F)F)CCC4C3CCC12C (centres unmarked)"
target_entity = "GABA receptor complex (GRC)"
readout_number = 115

[[record]]
compound = "C#CC1(O)CCC2C(CCC3C2CCC2(C)C(OC)CCC32)C1 (centres unmarked)"
target_entity = "GABA receptor complex (GRC)"
readout_number = 107

[[record]]
compound = "COCC1(O)CCC2(C)C(CCC3C2CCC2(C)C(C(=O)CS(=O)(=O)c4ccc(N5CCCC5)cc4)CCC32)C1 (centres unmarked)"
target_entity = "GABA receptor complex (GRC)"
readout_number = 101

[[record]]
compound = "CCCOC1CC2(C)C(CCC3C2CCC2(C)C(C(=O)CSc4cc[n+](C)cc4)CCC32)CC1O (centres unmarked)"
target_entity = "GABA receptor complex (GRC)"
readout_number = 101

[[record]]
compound = "C=C[C@@]1(O)CC[C@@]2(C)[C@@H](CC[C@@H]3[C@@H]2CC[C@]2(C)[C@@H](OC)CC[C@@H]32)C1"
target_entity = "GABA receptor complex (GRC)"
readout_number = 104

[[record]]
compound = "C[C@]12CC[C@@H](O)C[C@@H]1CC[C@@H]1[C@@H]2CC[C@]2(C)[C@@H](C(=O)CSc3ccncc3)CC[C@@H]12"
target_entity = "GABA receptor complex (GRC)"
readout_number = 98

[[record]]
compound = "C[C@]12CC[C@@H](O)C[C@H]1CC[C@@H]1[C@@H]2CC[C@]2(C)[C@@H](C(=O)C[S+]([O-])c3ccncc3)CC[C@@H]12 (some centres unmarked)"
target_entity = "GABA receptor complex (GRC)"
readout_number = 73

